Target: Pseudomonas aeruginosa LpxC enzyme (Pseudomonas aeruginosa (strain ATCC 15692 / DSM 22644 / CIP 104116 / JCM 14847 / LMG 12228 / 1C / PRS 101 / PAO1), UniProt P47205)
Test: biochemical
Type: biochemical
Details: inhibitory activity on Pseudomonas aeruginosa LpxC enzyme, class symbols A/B/C; read-out: Enzyme inhibitory activity
pIC50: −log10 of the molar value.
VALUE TYPE: pIC50

MOLECULE	DATA VALUE
CNC(=O)C(C(=O)NO)N(C)C(=O)c1ccc(-c2ccc(CN(C)C)cc2)cc1 (centres unmarked)	< 7.00

Input: So what does the record say about pIC50 for Cc1nnc(CNC(=O)C(NC(=O)c2ccc(-c3ccc(OCCO)cc3)cc2)C(=O)NO)s1 (centres unmarked) ?
Output: > 8.00

Input: So what does the record say about pIC50 for CNC(=O)C(C(=O)NO)N(C)C(=O)c1ccc(OC2C=CCCC2)cc1 (centres unmarked) ?
Output: 7.00 to 8.00

Input: So what does the record say about pIC50 for CNC(=O)C(C(=O)NO)N(C)C(=O)c1ccc(-c2ccc(N3CCOC3=O)cc2)cc1 (centres unmarked) ?
Output: 7.00 to 8.00

Input: So what does the record say about pIC50 for CNC(=O)C(C(=O)NO)N(C)C(=O)c1ccc(-c2ccc(OCCC(O)CO)cc2)cc1 (centres unmarked) ?
Output: > 8.00

Input: So what does the record say about pIC50 for CNC(=O)C(C(=O)NO)N(C)C(=O)c1ccc(-c2cc(F)c(NC)c(F)c2)cc1 (centres unmarked) ?
Output: > 8.00

Input: So what does the record say about pIC50 for CNC(=O)C(C(=O)NO)N(C)C(=O)c1ccc(-c2ccc(N3CC(OC)C3)cc2)cc1 (centres unmarked) ?
Output: > 8.00

Input: So what does the record say about pIC50 for CNC(=O)C(C)(NC(=O)c1ccc(-c2ccccc2)cc1)C(=O)NO (centres unmarked) ?
Output: < 7.00

* * *

Target: Pseudomonas aeruginosa LpxC enzyme (Pseudomonas aeruginosa (strain ATCC 15692 / DSM 22644 / CIP 104116 / JCM 14847 / LMG 12228 / 1C / PRS 101 / PAO1))
Assay: biochemical
Assay type: biochemical
Conditions: inhibitory activity on Pseudomonas aeruginosa LpxC enzyme, class symbols A/B/C; read-out: Enzyme inhibitory activity
The compounds listed here are annotated with their IC50.

Input: So what does the record say about IC50 for CNC(=O)C(C(=O)NO)N(C)C(=O)c1ccc(-c2nc3ccccc3s2)cc1 (centres unmarked) [Compound 344] ?
Output: 0.01 to 0.1 µM

Input: So what does the record say about IC50 for CNC(=O)C(C(=O)NO)N(C)C(=O)c1ccc(-c2c(F)c(F)c(NC)c(F)c2F)cc1 (centres unmarked) [Compound 72] ?
Output: < 0.01 µM

Input: So what does the record say about IC50 for CNC(=O)C(C(=O)NO)N(C)C(=O)c1ccc(-c2ccc(C(F)(F)F)cn2)cc1 (centres unmarked) [Compound 297] ?
Output: > 0.1 µM

Input: So what does the record say about IC50 for CNC(=O)C(C(=O)NO)N(C(=O)c1ccc(-c2ccccc2)cc1)C1CC1 (centres unmarked) [Compound 127] ?
Output: < 0.01 µM

Input: So what does the record say about IC50 for CNC(=O)C(C(=O)NO)N(C)C(=O)c1ccc(-c2ccc(CCF)cc2)cc1 (centres unmarked) [Compound 238] ?
Output: < 0.01 µM

Input: So what does the record say about IC50 for CNC(=O)C(C(=O)NO)N(C)C(=O)c1ccc(-c2ccc3c(c2)OCCO3)cc1 (centres unmarked) [Compound 81] ?
Output: < 0.01 µM

Input: So what does the record say about IC50 for CNC(=O)C(C(=O)NO)N(C)C(=O)c1ccc(C#Cc2ccc(CN3CCN(C)CC3)cc2)cc1 (centres unmarked) [Compound 304] ?
Output: < 0.01 µM

Input: So what does the record say about IC50 for CNC(=O)C(C(=O)NO)N(C)C(=O)c1ccc(C#Cc2ccc3c(c2)CN(C2CC2)C3)cc1 (centres unmarked) [Compound 385] ?
Output: < 0.01 µM

Input: So what does the record say about IC50 for CN(C(=O)c1ccc(-c2ccccc2)cc1)C(C(=O)NO)C(=O)NCc1ncccn1 (centres unmarked) [Compound 170] ?
Output: > 0.1 µM

Input: So what does the record say about IC50 for CNC(=O)C(C(=O)NO)N(C)C(=O)c1ccc(-c2ccc(/C=N/OC)cc2)cc1 (centres unmarked) [Compound 260] ?
Output: < 0.01 µM

Input: So what does the record say about IC50 for CNC(=O)C(C(=O)NO)N(C)C(=O)c1ccc(-c2ccc(OCc3ccccc3)nc2)cc1 (centres unmarked) [Compound 468] ?
Output: < 0.01 µM

Source of measurements: patent US9073821B2
